# credit: ChEMBL document CHEMBL3046143

Tested on: Root
Experiment: Drug uptake in Solanum lycopersicum (tomato) root after 1 to 15 days post germination by GC-ECD analysis
Format: ADME
Counter-ions that a name gives are not always drawn.
assay-metric: Drug uptake (ng/g)
Give bare numbers, in ng/g.

Example entries and their recorded answers appear below.
Tested on Root: O=S1OC[C@@H]2[C@H](CO1)[C@@]1(Cl)C(Cl)=C(Cl)[C@]2(Cl)C1(Cl)Cl (stereo partly drawn) [ALPHA-ENDOSULFAN] . Observed Drug uptake: 0.8

Measured Drug uptake for this entry Cl[C@H]1[C@H](Cl)[C@@H](Cl)[C@@H](Cl)[C@H](Cl)[C@H]1Cl [LINDANE] on Root: 16.2

Item ClC(Cl)=C(c1ccc(Cl)cc1)c1ccc(Cl)cc1 [DICHLORODIPHENYLDICHLOROETHYLENE] ; assay system Root; Drug uptake reported as 9.1

Root assay, compound Cl[C@H]1[C@H](Cl)[C@@H](Cl)[C@H](Cl)[C@@H](Cl)[C@H]1Cl [DELTA-HEXACHLOROCYCLOHEXANE] , recorded Drug uptake = 3.7

// Drug uptake (Root) for Cl[C@H]1[C@H](Cl)[C@H](Cl)[C@@H](Cl)[C@H](Cl)[C@H]1Cl [ALPHA-HEXACHLOROCYCLOHEXANE] = 1.9

Report Drug uptake for each item below.
1. Cl[C@H]1[C@H](Cl)[C@@H](Cl)[C@H](Cl)[C@@H](Cl)[C@@H]1Cl [BETA-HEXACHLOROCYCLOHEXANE]
2. Clc1ccc(C(c2ccc(Cl)cc2)C(Cl)(Cl)Cl)cc1 [CHLOROPHENOTHANE]
3. O=S1OC[C@@H]2[C@H](CO1)[C@]1(Cl)C(Cl)=C(Cl)[C@]2(Cl)C1(Cl)Cl (stereo partly drawn) [BETA-ENDOSULFAN]
4. O=S1(=O)OCC2C(CO1)C1(Cl)C(Cl)=C(Cl)C2(Cl)C1(Cl)Cl (centres undefined) [ENDOSULFAN SULFATE]

1: 3.7; 2: 19.2; 3: 2; 4: 151.6

====

Test system: Leaf
Assay: Drug uptake in Solanum lycopersicum (tomato) leaves after 16 to 59 days post germination by GC-ECD analysis
Format: ADME
Where a name gives a salt, the structure may show the parent alone.
assay-metric: Drug uptake (ng/g)
Give bare numbers, in ng/g.

Here are 2 molecules together with their reported answers.
Memo: `ClC(Cl)=C(c1ccc(Cl)cc1)c1ccc(Cl)cc1` , reported Drug uptake: 2.2

Summary for this molecule, `Cl[C@H]1[C@H](Cl)[C@@H](Cl)[C@H](Cl)[C@@H](Cl)[C@H]1Cl` : Drug uptake is 1.1

List reported Drug uptake for each of these molecules:
1. Cl[C@H]1[C@H](Cl)[C@@H](Cl)[C@H](Cl)[C@@H](Cl)[C@@H]1Cl
2. O=S1OC[C@@H]2[C@H](CO1)[C@@]1(Cl)C(Cl)=C(Cl)[C@]2(Cl)C1(Cl)Cl (stereo partly drawn) [ALPHA-ENDOSULFAN]
3. O=S1(=O)OCC2C(CO1)C1(Cl)C(Cl)=C(Cl)C2(Cl)C1(Cl)Cl (centres undefined) [ENDOSULFAN SULFATE]
4. Cl[C@H]1[C@H](Cl)[C@H](Cl)[C@@H](Cl)[C@H](Cl)[C@H]1Cl

1: 2.2; 2: 1.5; 3: 48.2; 4: 0.8

I'm hoping you can list Drug uptake for every molecule here, please.
1. O=S1OC[C@@H]2[C@H](CO1)[C@]1(Cl)C(Cl)=C(Cl)[C@]2(Cl)C1(Cl)Cl (stereo partly drawn) [BETA-ENDOSULFAN]
2. Cl[C@H]1[C@H](Cl)[C@@H](Cl)[C@@H](Cl)[C@H](Cl)[C@H]1Cl
3. Clc1ccc(C(c2ccc(Cl)cc2)C(Cl)(Cl)Cl)cc1

1: 2.9; 2: 4; 3: 8.24
